- study-system: Glutaminyl-peptide cyclotransferase (Homo sapiens, UniProt Q16769)
- Sequence (Q16769 whole entry): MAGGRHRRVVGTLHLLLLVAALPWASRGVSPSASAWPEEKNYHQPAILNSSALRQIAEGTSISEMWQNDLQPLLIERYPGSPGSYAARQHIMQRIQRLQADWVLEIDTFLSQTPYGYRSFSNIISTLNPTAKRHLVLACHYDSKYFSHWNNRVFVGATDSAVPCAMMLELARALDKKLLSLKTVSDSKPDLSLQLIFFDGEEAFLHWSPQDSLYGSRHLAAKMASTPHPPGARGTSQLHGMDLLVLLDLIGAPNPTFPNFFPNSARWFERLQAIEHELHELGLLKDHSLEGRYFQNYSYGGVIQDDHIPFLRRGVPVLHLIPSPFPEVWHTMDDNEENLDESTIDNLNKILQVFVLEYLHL
- protocol-notes: Inhibition of human recombinant glutaminyl cyclase using H-Gln-AMC hydrobromide as substrate measured after 15 mins by fluorimetry
pIC50: −log10 of the molar value.
measured-parameter: pIC50

test-smiles: COc1ccc(N(C(=S)NCCCn2cncc2C)C2CCN(C)CC2)cc1OC
result-number: 8.21

From: ChEMBL document CHEMBL5034025
